Listing of entries alongside the reported composite z-score.
molecular target: Torsin-1A-interacting protein 2 (Homo sapiens); assay: small molecules binding lysate-expressed LULL1 – cell lysate, human LULL1 lysate, 635/667 nm fluorescence, primary screen (AID 1092); conditions: small-molecule microarray, hLULL1 lysate binding, 635 nm fluorescence; higher = more signal;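 also: probe is lysate of COS7 cells overexpressing human LULL1; score merges per-feature 667 nm fluorescence with signal-to-noise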
Write the number on its own, no unit after it.

Some solved entries appear below for comparison.
C=C(COC)C(=O)CC[C@@H](OC(C)=O)c1ccccc1OCCO
1.76
CCCc1cc2c(n1CCc1ccc(Cl)cc1)C(C)C1CN(C(=O)c3ccccc3)C(C)(C(=O)OC)C21 (stereo not drawn)
3.31
CCCNC(=O)[C@@]1(c2ccc([N+](=O)[O-])cc2)CC(=O)N(C(C)C)[C@@H]1c1ccc(CO)cc1
1.41
O=C1C2C=CC(C(O)c3cccs3)N(Nc3ccc([N+](=O)[O-])cc3)C2C(=O)N1c1ccccc1 (stereo not drawn)
2.98
C=C(COC)C(=O)CC[C@H](OC(=O)c1cccnc1)c1ccc(OCCO)cc1
1.48
O=C(NCc1ccc(F)cc1)[C@H]1C[C@H]2C(=O)N3CCC[C@H]3C(=O)N2[C@H]1c1ccc(O)cc1
-0.296
C=CC[C@@]12N=C(c3ccc(OCCCO)cc3)O[C@@H]1c1ccccc1N(CCC)C2=O
3.12

# evaluate next
Query block: Report composite z-score for `COC(=O)C(CC#Cc1ccc2c(c1)[C@]1(C(=O)N2)[C@H](C(=O)N2CCc3cc(OC)c(OC)cc3C2)[C@H]2C(=O)O[C@H](c3ccccc3)[C@H](c3ccccc3)N2[C@@H]1c1ccccc1OCCO)C(=O)OC` please.
Result block: 3.06
